System: CCRF-CEM leukemia
Test: NCI tumour cell line growth inhibition, 48 h
Measured TGI values are reported for all entries that follow.

Below, 5 molecules whose answers are already recorded.
1. N#CCCC(CC#N)N1CCN(CCO)CC1 (stereo unspecified): > 100 µM
2. COc1ccc(NC(=O)C(=O)NNC(=O)c2sc(NNC(C)=O)nc2C)c([N+](=O)[O-])c1: 61.7 µM
3. O=c1nc2n(cc1/C=C\Br)C1CC(O)C(CO2)O1 (stereo unspecified): > 100 µM
4. Cc1ccc(C(=O)CC(Cl)=C(Cl)Cl)cc1: 52.1 µM
5. N/N=C1\c2ccccc2C2/C(=N\N)c3ccccc3C12 (stereo unspecified): > 100 µM

Item `C/C=C(/C)C(=O)O[C@@H]1c2c(C)coc2C[C@H]2CC[C@H](O)[C@H](C)[C@]21C` was tested on CCRF-CEM leukemia; the reported TGI is > 100 µM

====

Test system: LOX IMVI melanoma
Experiment: NCI tumour cell line growth inhibition, 48 h
Documented TGI across a set of molecules

Below are worked cases with known answers.
1) C/C(Cl)=N\OC(=O)Nc1ccccc1C(F)(F)F: 29.2 µM
2) C[C@@]12CC[C@H]3[C@@H]4CCC(=O)N[C@@]4(C)CC[C@@H]3[C@@]1(C)CC[C@H](OC(=O)Cc1ccc(N(CCCl)CCCl)cc1)C2: 27.8 µM
3) Nc1ccn([C@H]2C[C@@H](O)[C@@H](CO)S2)c(=O)n1: > 100 µM
4) NC(=O)N/N=C(\Cc1nc2ccc(C(=O)c3ccccc3)cc2[nH]c1=O)C(=O)Nc1ccc(Br)cc1: > 100 µM
5) O=C([O-])c1ccc2c(c1)-c1nc-2nc2[n-]c(nc3nc(nc4[n-]c(n1)c1ccc(C(=O)[O-])cc41)-c1cc(C(=O)[O-])ccc1-3)c1ccc(C(=O)[O-])cc21.[Fe+2]: > 42.9 µM
6) O=C(CC/C(C/C(=N/O)c1ccc(F)cc1)=N/O)N(Cc1ccccc1)Cc1ccccc1: > 100 µM

// TGI value for `C(CCc1nnc2c(n1)CCCC2)Cc1nnc2c(n1)CCCC2` : > 100 µM

The molecule listed as Nc1nc2c(c3ncccc13)C(c1cccc(Cl)c1)Cc1ncccc1-2 (stereo unspecified) shows TGI equal to 19.5 µM

For this molecule ( `COc1ccc2nc(NCCCNCCO)c3sc4ccc(F)cc4c(=O)c3c2c1` ), measured TGI is 2.9 µM

The reported TGI of the molecule `COc1cccc(NCC(=O)Nn2c(-c3ccccc3)nc3ccccc3c2=O)c1` was > 100 µM

# molecule `O=c1c2cc(Br)ccc2oc2nc3n(c(=O)c12)CCCS3` ; its TGI = > 100 µM

====

// reported GI50 for each item listed
Test system: EKVX NSCLC
Experiment: NCI tumour cell line growth inhibition, 48 h

1) CN1CCN(CC(=O)Nc2ccc3ncnc(Nc4ccc(Oc5cccc(C(F)(F)F)c5)c(Cl)c4)c3c2)CC1: 1.32 µM
2) COc1ccc(/C=C(/C(=O)N2CCCC2)c2cc(OC)c(OC)c(OC)c2)cc1N: 4.63 µM

Measured GI50 for this entry `Nc1nc2ccc([C@@H]3Nc4ccc5[nH]ncc5c4[C@H]4[C@H]5CCC(C5)[C@H]43)cc2s1` on EKVX NSCLC: 1.47 µM

With EKVX NSCLC as the test system, `C=C1C(=O)O[C@H]2[C@H]1CC/C(COC(=O)C(=O)c1c[nH]c3ccc(OC)cc13)=C\CC[C@@]1(C)O[C@@H]21` showed GI50 of 9.85 µM

Tested on EKVX NSCLC: CC(=O)OCC1OC(OC2CC3C(C)(C)C(OC(C)=O)CC[C@]3(C)C3CCC45CC4(CC[C@H]5C(C)CC(O)C4OC4(C)C)[C@]23C)C(O)C(O)C1O (stereo partly drawn) . Observed GI50: > 60 µM

`COc1ncc(-c2nc3c(n2C(C)C)[C@H](c2ccc(Cl)cc2)N(c2cc(Cl)cn(C)c2=O)C3=O)c(OC)n1` tested on EKVX NSCLC gave GI50: 36.6 µM

Form field, GI50 with EKVX NSCLC, item `COc1ccc(-c2cnc(-c3ccc(F)cc3)[nH]2)cc1` : 5.9 µM

Readout GI50 for `COc1cc(/C=C/C(=O)c2cc(F)c(Cl)cc2Cl)cc(OC)c1OC` , test system EKVX NSCLC, was > 100 µM

Just for reference, PubChem BioAssay (NCI) is where these values come from.
